molecular target: Bcl-xL (Homo sapiens); construct: myc-Bcl-xL SPOT array & FP; made in house; experiment: Fluorescence polarization direct binding; conditions: benchmark classification of peptides newly characterized in this study; read-out: Binder class, Bcl-xL
No end group written: not given here.
PROPERTY_NAME: Kd

Please report the measured Kd for GSGAWGLLLRRVGDDVLVHLLAR-NH2 [TERT] 1000 to 10000 nM

Name the recorded Kd of the item GDSVLARMLRELGDSLRRPQLRL-NH2 [SLC19A1] in your answer. 1000 to 10000 nM

Write down Kd measured for item QRKHEGFERDLAALGDKVNSLGETAE-NH2 [SPTAN1] > 10000 nM

Give Kd for the following substance: LRLFLAQRLRWLADSAPASRATA-NH2 [NBEAL2] < 1000 nM

Return Kd (reported value) for this substance: SYMVLAPVFGYLGDRYNRKYLMA-NH2 [SPNS1] < 1000 nM

Kindly indicate its recorded Kd. Item: DARDYAVVLRKYADKIYSISMKH-NH2 [FOLH1] < 1000 nM

Identify measured Kd corresponding to ELQELARKLQELADASENLLTEN-NH2 [TXNDC11] 1000 to 10000 nM

Specify measured Kd for EVLAGPLAQRLSHIAEDVGRLVKKSR-NH2 [ARHGAP4] . 1000 to 10000 nM

For the substance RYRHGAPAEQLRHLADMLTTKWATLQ-NH2 [PLEKHH1] , report Kd. < 1000 nM

Specify reported Kd for the substance shown: APYYLSRNLKQQADIIFMPYNYL-NH2 [RTEL1] 1000 to 10000 nM

Check the records and state Kd for AIRPRAVELRHLADDFINGNKKK-NH2 [MCF2L2] < 1000 nM

Provide one value: measured Kd of SKFVILSAHKLVFIGDTLSRQAKAAD-NH2 [BCAR1] 1000 to 10000 nM

For the substance THEEVVHLLRNAGDEVTITVEYL-NH2 [SNTG2] , report Kd. > 10000 nM

----------
target: Bfl-1 (Homo sapiens, UniProt Q16548); construct: myc- Bfl-1 SPOT array & FP; made in house; assay: Fluorescence polarization direct binding; conditions: Binder class, Bfl-1, benchmark classification of peptides newly characterized in this study
Sequence (Q16548 with tags, fused parts or gaps): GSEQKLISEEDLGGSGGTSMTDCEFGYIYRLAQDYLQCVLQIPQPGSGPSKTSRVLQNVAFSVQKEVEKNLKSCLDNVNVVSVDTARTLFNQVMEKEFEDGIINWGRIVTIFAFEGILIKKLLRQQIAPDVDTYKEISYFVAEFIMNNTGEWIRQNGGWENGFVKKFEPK
pKd: −log10 of the molar value. No end group written: not given here.
PROPERTY_NAME: pKd

Input RLVQQSKALKELADELQERAQRP-NH2 [TRIM58] , output reported pKd. < 5.00

----------
Molecular target: Bcl-xL (Homo sapiens, UniProt Q07817)
Construct: myc-Bcl-xL SPOT array & FP; made in house
Sequence (Q07817 with tags, fused parts or gaps): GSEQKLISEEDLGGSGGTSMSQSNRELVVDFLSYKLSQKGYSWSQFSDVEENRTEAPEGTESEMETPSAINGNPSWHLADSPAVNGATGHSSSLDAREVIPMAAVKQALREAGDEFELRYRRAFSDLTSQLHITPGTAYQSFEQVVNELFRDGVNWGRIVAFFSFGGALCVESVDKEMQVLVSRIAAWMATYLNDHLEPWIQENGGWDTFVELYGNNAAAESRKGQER
Experiment: LUMIER full-length protein interaction
Format: binding
Settings: LUMIER results for Bcl-xL; Z-score of the interaction relative to the Gaussian fit of the data; experiment 1, duplicate 1
Description: The LUMIER assay was carried out as previously described with the following modifications. A stable cell line expressing receptor tagged on the N-terminus with Nanoluc luciferase was created (the prey). […] After incubation and washing, luminescence was measured to quantify how much receptor-luciferase was captured by the bait protein. […]
PROPERTY_NAME: z-score 1.1

Quote z-score 1.1 reported for WDR60 (GGRVKLVHSALIQLGDSLSHKGNEFW) please. 4.105

Output z-score 1.1 of BAK1 (SSTMGQVGRQLAIIGDDINRRYDSEF) 0.8883

Fill in z-score 1.1 for record PRKD3 (IQENVDISTVYQIFADEVLGSGQFGI) 6.764

Consider the substance CCDC57 (QAGPVSSGLALRKLGDRVQLLNLLVT) . State its measured z-score 1.1. 2.807
